The measurements presented in this section are drawn from patent US5153352A.

Could you please report measured pIC50 for the items listed next?
System: Human Immunodificiency Virus (HIV-1)
Assay: HIV-1 antigen inhibition in H9 cells
Assay type: cell-based, HIV-1 (HTLV-IIIB)
Conditions: Human immunodeficiency virus 1; HIV-1, H9 cells, HIV antigen levels
Method: Uninfected H9 cells at 4×10^5 viable cells/ml were infected with approximately 100 viral infectious units (ifu) for 2 hrs at 37° C. The viral infectious dose (ifu) was determined by the tissue culture infectious dose (TCID50) method for each stock of HIV-1 (HTLV-IIIB) and HIV-2. […] Aliquots of culture supernatants were removed at 4, 6 and 10 days and monitored for HIV antigen levels by the Abbott HIV 1 antigen enzyme immunoassay (HIVAG-1). […]
Numbers only, as −log10 of the molar value.

{"columns": ["Compound", "pIC50"],
 "data": [
  ["Nc1ncnc2c1ncn2C1CC(CO)C1CO (centres unmarked)", 5.68]
]}

Kindly consider the entry below.
Request: Give the measured pIC50 of Nc1nc2c(ncn2C2CC(CO)C2CO)c(=O)[nH]1 (centres unmarked) .
Result: 5.96

###

Assay: MTT cytotoxicity assay in MRC5 cells
Format: cell-based
Settings: human, 1.0 ug/ml
Procedure: Human diploid embryonic lung (MRC5) cells were grown in 35 mm wells of 6-well tissue culture plates. […] Drug cytotoxicity was determined quantitatively by a method based on the reduction of the tetrazolium salt, 3-(4,5-dimethyl-thiazol-2-yl)-2,5-diphenyl tetrazolium bromide (MTT) by mitochondrial enzymes of viable host cells to MTT formazan (T. Mosmann, 1983). […] The blue color of the MTT formazan was measured spectrophotometrically at 570 nm. […]
Endpoint name: viability (%)
Answers are plain numbers, in %.

Request: Give the measured viability of Nc1nc2c(ncn2C2CC(CO)C2CO)c(=O)[nH]1 (stereo not shown) [Example 1I] .
Result: 100

###

Experiment: cytotoxicity in ATH8 cells (method of Mitsuya and Broder)
Type: cell-based
Details: human, HIV-1 experiment, 500 uM
Endpoint name: cytotoxicity at 500 µM
# include the unit after the value

Request: Give the measured cytotoxicity at 500 µM of Nc1nc(N)c2ncn(C3CC(CO)C3CO)c2n1 (stereo not shown) [Example 6] .
Result: 38%

###

Assay: in vitro
Settings: human, human foreskin fibroblasts, MTT Assay, 3.2 ug/ml
Endpoint name: viability (%)
Answers are plain numbers, in %.

Request: Give the measured viability of Nc1nc2c(ncn2C2CC(CO)C2CO)c(=O)[nH]1 (stereo not shown) .
Result: 79

###

Could you please report measured CC50 at 144 h for the items listed next?
Assay: cytotoxicity in uninfected PHA-stimulated human PBM cells
Assay type: cell-based
Details: uninfected PBMC, 6 days, read-out: Cytotoxicity in PBMC IC50
Experimental: Human peripheral blood mononuclear cells (PBMC) from healthy HIV-1 seronegative and hepatitis B virus seroneqative donors were isolated by Ficoll-Hypague discontinuous gradient centrifugation at 1,000×g for 30 minutes, washed twice in phosphate buffered saline (pH 7.2; PBS), and pelleted at 300×g for 10 minutes. […] The test compounds were evaluated for their potential toxic effects on uninfected PHA-stimulated human PBM cells. […]
Answers are plain numbers, in µM.

{"columns": ["Compound", "Value"],
 "data": [
  ["Nc1ncnc2c1ncn2C1CC(CO)C1CO (centres unmarked)", 23]
]}

Request: Give the measured CC50 at 144 h of Nc1nc2c(ncn2C2CC(CO)C2CO)c(=O)[nH]1 (centres unmarked) .
Result: 38.8
